Test system: S. aureus A798
Experiment: Bacterial growth minimal inhibitory concentration (microdilution, cation-adjusted Mueller-Hinton Broth)
Assay type: cell-based, Staphylococcus aureus
Settings: Staphylococcus aureus, A798; multiply-resistant strain (methicillin- and quinolone-resistant)
Label True when MIC is strictly below 2 µg/mL; at or above that, label False.

{"compound": "O=C1COc2ccc(N3C[C@H](CCNCc4cccc(-c5cc(OC6CNC6)cnn5)c4)OC3=O)nc2N1", "class.name": "False"}
{"compound": "C[C@@H]1CN(C)C[C@H]1Oc1cccc(-c2cccc(CNCC[C@H]3CN(c4ccc5c(n4)NC(=O)CO5)C(=O)O3)c2)n1 (relative stereo)", "class.name": "True"}
{"compound": "CN1CC[C@H](Oc2cccc(-c3cc(CNCC[C@H]4CN(c5ccc6c(n5)NC(=O)CO6)C(=O)O4)ccn3)n2)C1", "class.name": "True"}
{"compound": "O=C1COc2ccc(N3C[C@H](CCNCc4cccc(-c5cccc(OC[C@H]6CCCN6)n5)c4)OC3=O)nc2N1", "class.name": "True"}
{"compound": "CN1CC[C@H](COc2cccc(-c3cccc(CNCC[C@H]4CN(c5ccc6c(n5)NC(=O)CO6)C(=O)O4)c3)n2)C1", "class.name": "True"}

Item "O=C1COc2ccc(N3C[C@H](CCNCc4cccc(-c5cc(O[C@@H]6CCNC6)cnn5)c4)OC3=O)nc2N1" : MIC beneath 2 µg/mL, strictly?
False

// repeat for "O=C1CSc2ccc(N3C[C@@H](CCNCc4cccc(-c5cccc(OC[C@@H]6CCN6)n5)c4)OC3=O)cc2N1" and report
False

// repeat for "CN1CC[C@H](Oc2cnnc(-c3cccc(CNCC[C@H]4CN(c5ccc6c(n5)NC(=O)CO6)C(=O)O4)c3)c2)C1" and report
False

// repeat for "O=C1COc2ccc(N3C[C@H](CCNCc4cccc(-c5cc(OC[C@@H]6CCN6)cnn5)c4)OC3=O)nc2N1" and report
False

----------
System: S. aureus A798
Assay: Bacterial growth minimal inhibitory concentration (microdilution, cation-adjusted Mueller-Hinton Broth)
Type: cell-based, Staphylococcus aureus
Conditions: Staphylococcus aureus, A798; multiply-resistant strain (methicillin- and quinolone-resistant)
outcome.measure: MIC (µg/mL)
Field format: number, assumed µg/mL, no unit text.

{"compound": "O=C1COc2ccc(N3C[C@H](CCNCc4cccc(-c5cccc(OC6CNC6)n5)c4)OC3=O)nc2N1 [Example $107]", "measurement.units": "µg/mL", "recorded.measurement": 1}
{"compound": "O=C1COc2ccc(N3C[C@@H](CCNCc4cccc(-c5cccc(OC[C@@H]6CCN6)n5)c4)OC3=O)nc2N1 [Example $151]", "measurement.units": "µg/mL", "recorded.measurement": 4}

Recorded MIC for CN1CC(Oc2cccc(-c3cccc(CNCC[C@@H]4CN(c5ccc6c(c5)NC(=O)CS6)C(=O)O4)c3)n2)C1 [Example $149] , please?
0.5

// repeat for NCCOc1cccc(-c2cccc(CNCC[C@@H]3CN(c4ccc5c(c4)NC(=O)CS5)C(=O)O3)c2)n1 [Example 22] and report
0.5

// repeat for NCCOc1ccnc(-c2cccc(CNCC[C@H]3CN(c4ccc5c(n4)NC(=O)CO5)C(=O)O3)c2)c1 [Example $154] and report
4

// repeat for C[C@H](N)COc1cccc(-c2cccc(CNCC[C@H]3CN(c4ccc5c(n4)NC(=O)CO5)C(=O)O3)c2)n1 [Example 18] and report
0.5
